# Tested on: RWP1 cells
# measurement.notes: Effect of anti-FZD5 Fabs on proliferation of pancreatic cancer cell lines (percent growth inhibition)
# Type: cell-based, human
# assay.context: Fab 10 μg/ml
Property: percent growth inhibition, RWP1 10 μg/ml; scope: individual molecules

molecule	percent growth inhibition, RWP1 10 μg/ml (%)
Fab-2914: anti-FZD5 Fab with antibody variable region Fv-2914; CDR SEQ ID NOs: 35, 36, 53, 92, 129, 162 (antibody, V domains shown) VH: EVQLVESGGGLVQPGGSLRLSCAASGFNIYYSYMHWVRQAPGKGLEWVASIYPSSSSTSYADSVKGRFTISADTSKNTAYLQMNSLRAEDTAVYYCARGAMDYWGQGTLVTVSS VL: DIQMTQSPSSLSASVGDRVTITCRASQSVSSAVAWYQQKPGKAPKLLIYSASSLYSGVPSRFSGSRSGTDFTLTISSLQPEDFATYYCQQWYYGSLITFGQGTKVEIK	78.98
Fab-2906: anti-FZD5 Fab with antibody variable region Fv-2906; CDR SEQ ID NOs: 35, 36, 45, 84, 121, 158 (antibody, V domains shown) VH: EVQLVESGGGLVQPGGSLRLSCAASGFNFSSSSIHWVRQAPGKGLEWVAYISSSYGYTYYADSVKGRFTISADTSKNTAYLQMNSLRAEDTAVYYCARTVRGSKKPYFSGWAMDYWGQGTLVTVSS VL: DIQMTQSPSSLSASVGDRVTITCRASQSVSSAVAWYQQKPGKAPKLLIYSASSLYSGVPSRFSGSRSGTDFTLTISSLQPEDFATYYCQQWSWGFLITFGQGTKVEIK	5.47
